Measured Activity, listed per entry.
# Tested on: Caco-2
# Measurement Protocol: Effect on integrity in human Caco-2 cell monolayers assessed as transepithelial resistance by epithelial voltohmmeter relative to control
# Format: ADME, cell-based
# Design: concentration or dose not given beside the values
*1 amine or outer side, *2 acyl side, *3 side chain or, on linkers, in order; H or OH if unused. Where a SMILES comes first, the peptide text is derived from it. [ ]: non-standard residue; d: D form. X1 = O=C([C@H](/C=C/c1ccccc1)N[*:1])[*:2]

Consider the following illustrative entries.
CC[C@H](C)[C@H](NC(=O)[C@@H](NC(=O)[C@@H](N)Cc1ccccc1)[C@@H](C)O)C(=O)NCC(=O)N[C@@H](CCCNC(=N)N)C(=O)N[C@@H](CC(C)C)C(=O)O (H-FTIGRL-OH); 66%
CC[C@H](C)[C@H](NC(=O)[C@H](/C=C/c1ccccc1)NC(=O)[C@@H](N)Cc1ccccc1)C(=O)NCC(=O)N[C@@H](CCCNC(=N)N)C(=O)N[C@@H](CC(C)C)C(=O)O (H-F[X1]IGRL-OH); 113%

Shifting focus to the molecule that follows.
Determine its reported Activity: CC[C@H](C)[C@H](NC(=O)[C@H](CC(C)C)NC(=O)[C@@H](N)Cc1ccccc1)C(=O)NCC(=O)N[C@@H](CCCNC(=N)N)C(=O)N[C@@H](CC(C)C)C(=O)O (H-FLIGRL-OH)
121%

###

# Tested on: Caco-2
# Measurement Protocol: Permeability from apical to basolateral side of human Caco-2 cell monolayers assessed as increase in lucifer yellow flux at 7.0 mM relative to untreated control
# Assay type: ADME, cell-based
# Experimental Context: caco-2, 7000 µM
Where a SMILES comes first, the peptide text is derived from it. Bridges are numbered along the chain shown (N, C = ends). Roman numbers before positions name the chains, in order.
The molecules listed here are annotated with their fold change (FC).
Would you mind answering with just the numeric figure?

CC[C@H](C)[C@H](N)C(=O)NCC(=O)N[C@@H](CCCNC(=N)N)C(=O)N[C@@H](CC(C)C)C(=O)O (H-IGRL-OH); 0.9
CC[C@H](C)[C@H](NC(=O)[C@H](CSSC[C@H](NC(=O)[C@@H](N)Cc1ccccc1)C(=O)N[C@H](C(=O)NCC(=O)N[C@@H](CCCNC(=N)N)C(=O)N[C@@H](CC(C)C)C(=O)O)[C@@H](C)CC)NC(=O)[C@@H](N)Cc1ccccc1)C(=O)NCC(=O)N[C@@H](CCCNC(=N)N)C(=O)N[C@@H](CC(C)C)C(=O)O (I: H-FCIGRL-OH / II: H-FCIGRL-OH; disulfide I:2-II:2); 0.7

--- query ---
Output measured fold change (FC) for this item: CC[C@H](C)[C@H](NC(=O)[C@H](CC(=O)O)NC(=O)[C@@H](N)Cc1ccccc1)C(=O)NCC(=O)N[C@@H](CCCNC(=N)N)C(=O)N[C@@H](CC(C)C)C(=O)O (H-FDIGRL-OH)
0.7
